pIC50: −log10 of the molar value.
pIC50 values for Lysine-specific demethylase 5B (Homo sapiens, UniProt Q9UGL1), compiled from several publications.
quantity: pIC50

molecule.smiles	test.system	quantity	measured.result
COc1cc(CNc2ccc3nccn3c2C(=O)O)ccc1O	Lysine-specific demethylase 5B (Homo sapiens, UniProt Q9UGL1)	pIC50	< 6.00
CC(C)Oc1cc(Cl)ccc1COc1ccnn1-c1cc(C(=O)O)ccn1	Lysine-specific demethylase 5B (Homo sapiens, UniProt Q9UGL1)	pIC50	6.00 to 7.00
COc1cc(Cl)ccc1CNc1ccc2nc(C)cn2c1C(=O)O	Lysine-specific demethylase 5B (Homo sapiens, UniProt Q9UGL1)	pIC50	< 6.00
Cn1cnc(-c2cc(C(=O)O)ccn2)c1-c1ccc(OCC2CC2)cc1	Lysine-specific demethylase 5B (Homo sapiens, UniProt Q9UGL1)	pIC50	≥ 7.00
O=C(O)c1ccnc(-c2cn(CCNCC3CC(F)(F)C3)cn2)c1	Lysine-specific demethylase 5B (Homo sapiens, UniProt Q9UGL1)	pIC50	≥ 7.00
Cn1cnc(-c2cc(C(=O)O)ccn2)c1-c1ccc(C(F)(F)F)cc1	Lysine-specific demethylase 5B (Homo sapiens, UniProt Q9UGL1)	pIC50	≥ 7.00
O=C(O)c1ccnc(-c2cn(Cc3cccc(F)c3)cn2)c1	Lysine-specific demethylase 5B (Homo sapiens, UniProt Q9UGL1)	pIC50	≥ 7.00
Oc1nc(OCc2cc(F)ccc2F)nc2cnccc12	Lysine-specific demethylase 5B (Homo sapiens, UniProt Q9UGL1)	pIC50	5.00 to 6.00
CCCn1nc(Nc2cnccc2C(=O)O)c2cc(F)ccc21	Lysine-specific demethylase 5B (Homo sapiens, UniProt Q9UGL1)	pIC50	> 7.00

---

IC50 values for Lysine-specific demethylase 5B (Homo sapiens, UniProt Q9UGL1) compiled from several publications are listed below.

molecule.smiles	IC50
CC(C)(C)c1ccc(CNc2ccc3nccn3c2C(=O)O)cc1	> 1000 nM
Cc1ccc2c(c1)c(Nc1cnccc1C(=O)O)nn2CC1CC1	< 100 nM
O=C(O)c1ccncc1NCc1cccc(OCC2CC2)c1	≤ 100 nM
O=C(O)c1c(NCc2cc(F)c(F)c(F)c2)ccc2nccn12	> 1000 nM
Oc1nc(Oc2cccc(F)c2)nc2cnccc12	≤ 100 nM
O=S(=O)(C1CC1)N1CCC[C@H](n2cc(Oc3nc(O)c4ccncc4n3)cn2)C1	≤ 100 nM
O=C(O)c1ccncc1Nc1nn(CC2CC2)c2ccc(F)cc12	< 100 nM
COc1cc(-c2c(-c3cc(C(=O)O)ccn3)ncn2C)ccc1Cl	≤ 100 nM
O=C(O)c1ccnc(-n2nc(-c3cccc(Cl)c3)cc2O)c1	1000 to 10000 nM
Cc1ccc(COc2ccnn2-c2cc(C(=O)O)ccn2)cc1Cl	< 100 nM
